Hello, the source for this data is PubChem BioAssay (NCI), in case you need it.

tested on: HS 578T breast; test: NCI tumour cell line growth inhibition, 48 h
quantity_measured: TGI

- CC1(c2cccc(C3CCC4(C=CC3=O)OCCO4)c2)OCCO1 (configuration not stated): 41.8 µM
- N#Cc1ccc(Nc2nc3nc[nH]c3c(=O)[nH]2)cc1: > 100 µM
- CCOC(=O)c1c(NC(=S)NCc2ccccc2)sc2c1CCN(C)C2: > 100 µM
- c1ccc(COc2nc3ccc(C45CC6CC(CC(C6)C4)C5)cc3[nH]2)cc1: > 75.7 µM
- O=C(CC1C(=O)Nc2ccccc2S1=O)Nc1cccc(Cl)c1 (configuration not stated): > 100 µM
- NC(=O)c1cc2ccccc2c(N=Nc2ccccc2)c1O: > 100 µM
- COc1cc2c(/C=C3\C(=O)Nc4ccc(Br)cc43)c(Cl)n(C)c2cc1C: 3.46 µM
- Cc1nc2c(=O)[nH]c(=O)nc-2n(CCO)c1C: > 100 µM
- CC(=O)c1ccc2c(c1)CC1(C2)Cc2cc3c(cc2C1)C(=O)CC3 (configuration not stated): > 69.2 µM
- O=c1c2ccccc2nc(-c2ccc(Cl)cc2)n1O: > 100 µM
- CCCCCCCCSC1=CC(=O)C(OC)=C(OC)C1=O: 9.85 µM
- COC(=O)c1c(-c2ccccc2)csc1NC(=O)c1c(-c2ccccc2)noc1C: > 100 µM
